target: CAMKK2 (Homo sapiens); construct: made in house; assay: CAMKK2 enzyme assay (radiometric, CaMKKtide); assay type: biochemical; settings: 1.0 µM inhibitor
Decide using PoC (activity remaining) alone. Strictly below 80%: true. Equal to or above 80%: false.

Worked examples, 4 compounds total:
Prompt: Take the compound c1ccc2c(-c3cnn4cc(-c5ccc(N6CCNCC6)cc5)cnc34)ccnc2c1 [LDN 193189] and say whether its PoC (activity remaining) is less than 80%.
Response: true

Prompt: Take the compound CNC(=O)c1ccccc1Nc1nc(Nc2ccc(N3CCOCC3)cc2OC)ncc1Cl [TAE226] and say whether its PoC (activity remaining) is less than 80%.
Response: false

Prompt: Take the compound Cn1cc(C2=C(c3cn(CCCSC(=N)N)c4ccccc34)C(=O)NC2=O)c2ccccc21 [Ro 31-8220] and say whether its PoC (activity remaining) is less than 80%.
Response: false

Prompt: Take the compound O=C1NC(=O)c2c1c1c3ccccc3n3c1c1c2c2ccccc2n1C1CCC3O1 [SB 218078] and say whether its PoC (activity remaining) is less than 80%.
Response: true

Others:
Prompt: Take the compound CC(=O)NCC(=O)N1[C@@H]2CC[C@H]1c1ccc(Nc3ncc(C(F)(F)F)c(NC4CCC4)n3)cc12 [PF03814735] and say whether its PoC (activity remaining) is less than 80%.
Response: true

Prompt: Take the compound COc1cc(N2CCOCC2)ccc1Nc1ncc(F)c(Nc2ccccc2NS(C)(=O)=O)n1 [CZC 25146] and say whether its PoC (activity remaining) is less than 80%.
Response: false

Prompt: Take the compound O=C(Nc1cccc(Nc2ncc(Br)c(NCCc3cnc[nH]3)n2)c1)N1CCCC1 [BX912] and say whether its PoC (activity remaining) is less than 80%.
Response: true

* * *

Measured PoC (activity remaining), listed per entry.
target: CAMKK2 (Homo sapiens); construct: made in house; test: CAMKK2 enzyme assay (radiometric, CaMKKtide); type: biochemical; conditions: 1.0 µM inhibitor
Please reply with the bare figure in % and do not write the unit itself.

Prompt: Write down PoC (activity remaining) measured for item O=C(NCCCNc1nc(Nc2cccc(CN3CCOCC3)c2)ncc1C1CC1)C1CCC1 [MRT67307]
Response: 35

Others:
Prompt: Write down PoC (activity remaining) measured for item O=C1Nc2cc(Br)ccc2/C1=C1/Nc2ccccc2/C1=N\O [BIO]
Response: 89

Prompt: Write down PoC (activity remaining) measured for item Cc1ncc(CCCN(C)C)cc1Nc1ncc2c(n1)-c1ccc(C(F)(F)F)cc1NC(=S)C2 [MLN 0905]
Response: 86

Prompt: Write down PoC (activity remaining) measured for item N#Cc1c(Oc2ccc(F)c(NC(=O)Cc3cccc(C(F)(F)F)c3)c2)ccc2nc(NC(=O)C3CC3)sc12 [TAK632]
Response: 82

* * *

target: CAMKK2 (Homo sapiens); construct: made in house; experiment: CAMKK2 enzyme assay (radiometric, CaMKKtide); format: biochemical; conditions: 0.1 µM inhibitor; read-out: PoC (activity remaining)
Measured remaining activity at 0.1 µM, listed per entry.
Remember to put the unit after the number in your answer.

Please review the entries below; each comes with its answer.
Prompt: Write down remaining activity at 0.1 µM measured for item `c1cc(-c2cnn3cc(-c4ccc(OCCN5CCCCC5)cc4)cnc23)ccn1`
Response: 96%

Prompt: Write down remaining activity at 0.1 µM measured for item `CCc1nc(C(N)=O)c(Nc2ccc(N3CCC(N4CCN(C)CC4)CC3)c(OC)c2)nc1NC1CCOCC1`
Response: 74%

Others:
Prompt: Write down remaining activity at 0.1 µM measured for item `CC1(COc2ccc3c(c2)ncn3-c2ccc3cccc(N4CCC(N)CC4)c3n2)COC1`
Response: 92%

Prompt: Write down remaining activity at 0.1 µM measured for item `CC[C@@H]1C(=O)N(C)c2cnc(Nc3ccc(C(=O)N[C@H]4CC[C@H](N5CCN(CC6CC6)CC5)CC4)cc3OC)nc2N1C(C)C`
Response: 94%

Prompt: Write down remaining activity at 0.1 µM measured for item `Cc1[nH]c(/C=C2\C(=O)Nc3ccc(S(=O)(=O)Cc4c(Cl)cccc4Cl)cc32)c(C)c1C(=O)N1CCC[C@@H]1CN1CCCC1`
Response: 93%

Prompt: Write down remaining activity at 0.1 µM measured for item `CCOc1cc2ncc(C#N)c(Nc3ccc(F)c(Cl)c3)c2cc1NC(=O)/C=C/CN(C)C`
Response: 84%

* * *

target: CAMKK2 (Homo sapiens, UniProt Q96RR4); construct: made in house; experiment: CAMKK2 enzyme assay (radiometric, CaMKKtide); assay type: biochemical; settings: 1.0 µM inhibitor; read-out: PoC (activity remaining)
Sequence (Q96RR4 whole entry): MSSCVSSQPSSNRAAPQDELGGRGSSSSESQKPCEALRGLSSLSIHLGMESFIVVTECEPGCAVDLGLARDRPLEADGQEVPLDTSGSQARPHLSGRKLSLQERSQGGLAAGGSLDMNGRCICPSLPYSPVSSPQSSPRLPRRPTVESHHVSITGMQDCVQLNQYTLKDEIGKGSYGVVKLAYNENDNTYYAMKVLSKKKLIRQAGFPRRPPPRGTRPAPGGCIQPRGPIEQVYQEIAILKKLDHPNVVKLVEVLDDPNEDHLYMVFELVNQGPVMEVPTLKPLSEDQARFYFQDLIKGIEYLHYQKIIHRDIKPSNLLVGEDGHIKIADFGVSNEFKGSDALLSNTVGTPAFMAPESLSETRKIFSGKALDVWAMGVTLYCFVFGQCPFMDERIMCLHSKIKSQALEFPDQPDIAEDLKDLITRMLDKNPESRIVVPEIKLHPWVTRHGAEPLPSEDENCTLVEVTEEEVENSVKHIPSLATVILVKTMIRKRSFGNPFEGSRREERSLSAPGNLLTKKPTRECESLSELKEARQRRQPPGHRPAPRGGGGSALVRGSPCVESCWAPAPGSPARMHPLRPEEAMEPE
Decide using remaining activity at 1 µM alone. Strictly below 30%: t. Equal to or above 30%: f.

Prompt: Take the compound `O=C(O)c1ccc2c3c1cccc3c(=O)n1c3ccccc3nc21` and say whether its remaining activity at 1 µM is less than 30%.
Response: t

Others:
Prompt: Take the compound `CCS(=O)(=O)Nc1ccc2c(c1)/C(=C(/Nc1ccc(CN3CCCCC3)cc1)c1ccccc1)C(=O)N2` and say whether its remaining activity at 1 µM is less than 30%.
Response: f

Prompt: Take the compound `Cc1nc(Nc2[nH]nc3c2CN(C(=O)N[C@H](CN(C)C)c2ccccc2)C3(C)C)c2sccc2n1` and say whether its remaining activity at 1 µM is less than 30%.
Response: f

Prompt: Take the compound `C1=C/COCc2cc(ccc2OCCN2CCCC2)Nc2nccc(n2)-c2cccc(c2)COC/1` and say whether its remaining activity at 1 µM is less than 30%.
Response: f

Prompt: Take the compound `CN1CC[C@H](c2c(O)cc(O)c3c(=O)cc(-c4ccccc4Cl)oc23)[C@H](O)C1` and say whether its remaining activity at 1 µM is less than 30%.
Response: t

All figures here come from paper PMC7024175.
